Tested on: Enterococcus faecalis
Assay: Antibacterial activity against Enterococcus faecalis ATCC 29212 after 24 hrs by microdilution method
Format: functional
Details: ATCC 29212, 24 h
measured_property: MIC

1. CCCCCCCCCCCCCCn1nnc(-c2n[nH]c(=S)n2-c2ccccc2)c1-c1n[nH]c(=S)n1-c1ccccc1: 1 to 128 µg/mL
2. O=C(O)c1cn(C2CC2)c2cc(N3CCNCC3)c(F)cc2c1=O: 1 to 8 µg/mL
3. CCCCCCCCCCCCn1nnc(-c2n[nH]c(=S)n2N)c1-c1n[nH]c(=S)n1N: 1 to 128 µg/mL

Kindly review the next molecule as well.
Just so you know, measured MIC for OC(Cn1cncn1)(Cn1cncn1)c1ccc(F)cc1F came out at 4 µg/mL
